# ASSAYED TARGET: T1, TNFR1 (Homo sapiens, UniProt P19438)
# T1 chain: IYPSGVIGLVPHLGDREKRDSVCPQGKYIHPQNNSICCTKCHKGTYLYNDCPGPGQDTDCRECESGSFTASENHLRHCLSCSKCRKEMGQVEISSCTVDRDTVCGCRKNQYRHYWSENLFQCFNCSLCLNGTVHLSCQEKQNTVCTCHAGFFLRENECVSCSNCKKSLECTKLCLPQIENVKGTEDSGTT
# METHOD SUMMARY: yeast display SC50
EXPERIMENTAL ENDPOINT: apparent Kd (screen) (nM)

Worked cases, apparent Kd (screen) given:
Can you share its apparent Kd (screen)? I mean this binder: R21T (designed binder) MTLQELLREEALRRAEAEAFTYALELLAEKFPEQKEYLLDLAEEIESQIRSLSGVDVEDVRKFLDKEWAWVKELLAEHPAELAEVEAARAARLAELRAEVEAKVAA
0.956

Can you check T2V (designed binder) MVLQELLREEALRRAEAEAFRYALELLAEKFPEQKEYLLDLAEEIESQIRSLSGVDVEDVRKFLDKEWAWVKELLAEHPAELAEVEAARAARLAELRAEVEAKVAA next?
0.593

Follow-up item: I49V (designed binder) MTLQELLREEALRRAEAEAFRYALELLAEKFPEQKEYLLDLAEEIESQVRSLSGVDVEDVRKFLDKEWAWVKELLAEHPAELAEVEAARAARLAELRAEVEAKVAA
2.05

And E44Q (designed binder) MTLQELLREEALRRAEAEAFRYALELLAEKFPEQKEYLLDLAEQIESQIRSLSGVDVEDVRKFLDKEWAWVKELLAEHPAELAEVEAARAARLAELRAEVEAKVAA ?
9.41

1. E67L (designed binder) MTLQELLREEALRRAEAEAFRYALELLAEKFPEQKEYLLDLAEEIESQIRSLSGVDVEDVRKFLDKLWAWVKELLAEHPAELAEVEAARAARLAELRAEVEAKVAA
2. R97Q (designed binder) MTLQELLREEALRRAEAEAFRYALELLAEKFPEQKEYLLDLAEEIESQIRSLSGVDVEDVRKFLDKEWAWVKELLAEHPAELAEVEAARAARLAELQAEVEAKVAA
Looking at recorded values for apparent Kd (screen), does 1 or 2 come in lower? Please reply using the label of the selected record.
2

1. R21F (designed binder) MTLQELLREEALRRAEAEAFFYALELLAEKFPEQKEYLLDLAEEIESQIRSLSGVDVEDVRKFLDKEWAWVKELLAEHPAELAEVEAARAARLAELRAEVEAKVAA
2. L38N (designed binder) MTLQELLREEALRRAEAEAFRYALELLAEKFPEQKEYNLDLAEEIESQIRSLSGVDVEDVRKFLDKEWAWVKELLAEHPAELAEVEAARAARLAELRAEVEAKVAA
# min-compare on apparent Kd (screen) between 1 and 2 Refer to your chosen entry by its label in the reply.
1
(1: 0.49 nM, 2: 1.86 nM)
